Target: HLA-B*08:01
Assay: IEDB peptide-MHC binding, purified MHC/direct/fluorescence; filed as Kd, often an IC50 or EC50 that approximates it; bounds were set here for any values at or beyond the usual limits of such assays
Conditions: source organism: Brucella abortus
pKd: −log10 of the molar value.
parameter.measured: pKd

# input sequence: SRIGAWASK ; wanted: its pKd
≤ 4.70

###

Biological target: HLA-A*24:03
Assay: IEDB peptide-MHC binding, purified MHC/competitive/fluorescence; filed as Kd, often an IC50 or EC50 that approximates it; bounds were set here for any values at or beyond the usual limits of such assays
Conditions: source organism: Orthohantavirus andesense
parameter.measured: Kd (nM)
Answer with a number only, understood to be in nM.

# input sequence: VWKQLFPEL ; wanted: its Kd
10.5

###

Target: HLA-B*08:02
Assay: IEDB peptide-MHC binding, purified MHC/direct/fluorescence; filed as Kd, often an IC50 or EC50 that approximates it; bounds were set here for any values at or beyond the usual limits of such assays
Conditions: source organism: Orthomarburgvirus marburgense
parameter.measured: Kd

# input sequence: KRLLLKLDF ; wanted: its Kd
≥ 20 µM

###

Target: HLA-A*02:12
Experiment: IEDB peptide-MHC binding, purified MHC/competitive/fluorescence; filed as Kd, often an IC50 or EC50 that approximates it; bounds were set here for any values at or beyond the usual limits of such assays
Details: source organism: Coxiella burnetii RSA 331
parameter.measured: Kd

# input sequence: HMNKLPLAK ; wanted: its Kd
≥ 20 µM

###

Target: HLA-A*68:02
Assay: IEDB peptide-MHC binding, purified MHC/competitive/fluorescence; filed as Kd, often an IC50 or EC50 that approximates it; bounds were set here for any values at or beyond the usual limits of such assays
Details: source organism: Francisella tularensis subsp. tularensis FSC198
pKd: −log10 of the molar value.
parameter.measured: pKd

# input sequence: REMGIVDLL ; wanted: its pKd
≤ 4.70

###

Target: HLA-A*01:01
Assay: IEDB peptide-MHC binding, purified MHC/direct/fluorescence; filed as Kd, often an IC50 or EC50 that approximates it; bounds were set here for any values at or beyond the usual limits of such assays
Conditions: source organism: Camelpox virus M-96
parameter.measured: Kd

[[record]]
residues = "RVATENIAV"
val = "≥ 20 µM"


# input sequence: IQFMHEQGY ; wanted: its Kd
≥ 20 µM

###

Target: HLA-B*07:02
Assay: IEDB peptide-MHC binding, purified MHC/competitive/fluorescence; bounds were set here for any values at or beyond the usual limits of such assays
Conditions: source organism: Zaire ebolavirus
parameter.measured: IC50

[[record]]
residues = "RVIPVYQVN"
val = "≥ 151 µM"


Let us move to another entry and its IC50.
# input sequence: FSILNRKAI ; wanted: its IC50
46.5 µM

###

Biological target: HLA-B*15:17
Test: IEDB peptide-MHC binding, purified MHC/direct/fluorescence; filed as Kd, often an IC50 or EC50 that approximates it; bounds were set here for any values at or beyond the usual limits of such assays
Settings: source organism: Mammarenavirus lassaense
parameter.measured: Kd

Given the entry KSFLWTQSL , what Kd was observed with HLA-B*15:17?
≤ 1 nM

###

Biological target: HLA-B*15:03
Experiment: IEDB peptide-MHC binding, purified MHC/competitive/radioactivity; filed as Kd, often an IC50 or EC50 that approximates it; bounds were set here for any values at or beyond the usual limits of such assays
Conditions: source organism: Vaccinia virus WR
pKd: −log10 of the molar value.
Outcome label depends on pKd relative to 8: at/above gives true (1), below gives false (0).

Example entries begin here.
[[record]]
residues = "LIRNKRLSL"
category = "false (0)"

[[record]]
residues = "SMYPSYIEF"
category = "true (1)"

[[record]]
residues = "SSKVFLKAF"
category = "true (1)"

[[record]]
residues = "AAFEFINSL"
category = "true (1)"

[[record]]
residues = "YKFSCGLSL"
category = "true (1)"

[[record]]
residues = "RLNPEVSYF"
category = "true (1)"

[[record]]
residues = "LIGARRTSF"
category = "false (0)"

[[record]]
residues = "MKSLAMTAF"
category = "true (1)"

[[record]]
residues = "RLQPNQPPK"
category = "false (0)"

[[record]]
residues = "CSAPPGQHM"
category = "false (0)"


Kindly determine if pKd recorded for FQVVNPHLL is above or exactly 8.
false (0)

Kindly determine if pKd recorded for MIKIALSVA is above or exactly 8.
false (0)

Kindly determine if pKd recorded for RSHIRKPPS is above or exactly 8.
false (0)

Kindly determine if pKd recorded for IQFMHEQGY is above or exactly 8.
true (1)

Kindly determine if pKd recorded for FSGSFASIF is above or exactly 8.
true (1)

Kindly determine if pKd recorded for LEFIHSQGF is above or exactly 8.
false (0)

Kindly determine if pKd recorded for VGVNHSNTF is above or exactly 8.
false (0)
